# experimentalTarget: vanilloid receptor (VR1) (Homo sapiens, UniProt Q8NER1)
# Construct: expressed in transfected cells; host or cells: CHO K1 cells (ECACC), stably transfected
# Sequence (Q8NER1 whole entry): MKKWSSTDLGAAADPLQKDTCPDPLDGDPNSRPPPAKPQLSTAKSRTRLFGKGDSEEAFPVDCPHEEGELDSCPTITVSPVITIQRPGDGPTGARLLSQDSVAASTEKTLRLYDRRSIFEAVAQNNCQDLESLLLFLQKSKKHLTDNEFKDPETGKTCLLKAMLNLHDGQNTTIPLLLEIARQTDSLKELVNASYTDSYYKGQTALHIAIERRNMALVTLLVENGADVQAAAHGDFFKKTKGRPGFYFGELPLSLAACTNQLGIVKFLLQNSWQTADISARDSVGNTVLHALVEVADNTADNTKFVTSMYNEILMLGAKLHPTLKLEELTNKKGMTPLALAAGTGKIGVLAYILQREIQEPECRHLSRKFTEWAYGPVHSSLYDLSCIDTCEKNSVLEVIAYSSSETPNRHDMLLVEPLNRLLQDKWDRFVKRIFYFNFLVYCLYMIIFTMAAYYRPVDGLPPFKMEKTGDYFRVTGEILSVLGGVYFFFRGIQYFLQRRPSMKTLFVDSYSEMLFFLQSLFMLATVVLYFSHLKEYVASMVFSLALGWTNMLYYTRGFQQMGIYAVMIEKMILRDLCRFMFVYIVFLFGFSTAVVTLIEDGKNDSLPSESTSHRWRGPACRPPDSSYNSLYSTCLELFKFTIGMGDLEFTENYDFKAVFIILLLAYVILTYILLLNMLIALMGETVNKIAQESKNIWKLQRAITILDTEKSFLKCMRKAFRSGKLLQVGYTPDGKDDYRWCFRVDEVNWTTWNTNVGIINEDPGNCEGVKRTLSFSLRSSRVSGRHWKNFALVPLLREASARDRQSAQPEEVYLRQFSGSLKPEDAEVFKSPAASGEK
# measurementNotes: Functional testing on vanilloid receptor (VR1): FLIPR Ca2+ inflow assay in CHO K1 cells stably transfected with the VR1 gene
# Assay type: cell-based
# conditionNotes: CHO-K1, stimulation compared to 10 μM CP (capsaicin)
activation at 10 µM: recorded values
Dear colleague, please return just the value in %, with no unit written.

Past entries and their recorded results:
>  <compound>
O=C(C#Cc1ccc(C(F)(F)F)cc1)N1CCC2(CC1)CC(c1ccccc1)=NO2

>  <unitsSymbol>
%

>  <observedMeasurement>
0

$$$$
>  <compound>
CC(C)c1ccc(NC(=O)N2CCC3(CC2)CC(c2ccccc2)=NO3)cc1

>  <unitsSymbol>
%

>  <observedMeasurement>
0.11

$$$$
>  <compound>
O=C(/C=C/c1ccc(C(F)(F)F)nc1N1CCCCC1)N1CCC2(CC1)CC(c1cccc(Cl)c1)=NO2

>  <unitsSymbol>
%

>  <observedMeasurement>
0

$$$$
>  <compound>
Cc1ccc(C2=NOC3(CCN(C(=O)Nc4ccc(C(C)(C)C)cc4)CC3)C2)cc1

>  <unitsSymbol>
%

>  <observedMeasurement>
-0.18

$$$$
>  <compound>
O=C(/C=C/c1ccc(C(F)(F)F)nc1N1CCCCC1)N1CCC2(CC1)CC(c1cccc(F)c1)=NO2

>  <unitsSymbol>
%

>  <observedMeasurement>
-1

$$$$
>  <compound>
COc1cccc(NC(=O)N2CCC3(CC2)CC(c2ccccc2)=NO3)c1

>  <unitsSymbol>
%

>  <observedMeasurement>
0.33

$$$$
>  <compound>
CC(C)(C)c1ccc(NC(=O)N2CCC3(CC2)CC(c2ccccc2)=NO3)cc1

>  <unitsSymbol>
%

>  <observedMeasurement>
-0.3

$$$$
>  <compound>
O=C(Nc1ccc(I)cc1)N1CCC2(CC1)CC(c1ccccc1)=NO2

>  <unitsSymbol>
%

>  <observedMeasurement>
-0.15

$$$$
>  <compound>
CC(C)(C)c1ccc(C=CC(=O)N2CCC3(CC2)CC(c2ccccc2)=NO3)cc1

>  <unitsSymbol>
%

>  <observedMeasurement>
0

$$$$
>  <compound>
CC(C)(C)c1ccc(/C(=C/C(=O)N2CCC3(CC2)CC(c2ccccc2F)=NO3)c2ccc(Cl)c(Cl)c2)cc1

>  <unitsSymbol>
%

>  <observedMeasurement>
0

$$$$

Exam item: Given the entry CC(C)(C)c1ccc(C2=NOC3(CCN(C(=O)Nc4ccc(Cl)cc4)CC3)C2)cc1 , report its measured activation at 10 µM.
Marked response: -0.22

Exam item: Quick one: activation at 10 µM of COc1cc(C2=NOC3(CCN(C(=O)Nc4ccc(C(C)(C)C)cc4)CC3)C2)ccc1Cl ?
Marked response: 42

Exam item: Item COc1cccc(C2=NOC3(CCN(C(=O)C#Cc4ccc(C(F)(F)F)cc4)CC3)C2)c1 has what recorded activation at 10 µM?
Marked response: 0

Exam item: Which activation at 10 µM value is on record for CC(C(=O)N1CCC2(CC1)CC(c1cccc(F)c1)=NO2)c1ccc(NS(C)(=O)=O)c(F)c1 (stereo not shown) ?
Marked response: -1

Exam item: Give its activation at 10 µM value. Item: FC(F)(F)c1cccc(NC(=S)N2CCC3(CC2)CC(c2ccccc2)=NO3)c1
Marked response: -0.28

Exam item: Query (compound): CC(C)(C)c1ccc(NC(=O)N2CCC3(CC(c4ccccc4)=NO3)C2)cc1 (stereo not shown) ; field requested: activation at 10 µM
Marked response: 1

Exam item: Could you share which activation at 10 µM value was measured for COc1cccc(C2=NOC3(CCN(C(=O)Nc4ccc(Cl)cc4)CC3)C2)c1 ?
Marked response: -0.14
